experiment: Therapeutic Index against HRV-14 virus infection; assay type: organism-based; settings: rhinovirus b14, H1-HeLa cells; read-out: TI
Non-standard residues stand in square brackets, D forms with d. Residues, ends and D or L forms follow the SMILES beside them. *: point of attachment. Met(O) = CS(=O)CC[C@H](N)C(=O)O; Cbz = O=C(OCc1ccccc1)*; Dap = NC[C@H](N)C(=O)O; Propionyl = CCC(=O)*
result-type: selectivity ratio

compound="CCC(=O)NC[C@@H](C=O)NC(=O)[C@H](Cc1ccccc1)NC(=O)[C@H](CC(C)C)NC(=O)OCc1ccccc1 (Cbz-Leu-Phe-[Dap](Propionyl)-aldehyde)" result_type="selectivity ratio" assay_value="> 77"
compound=CC(C)C[C@H](NC(=O)OCc1ccccc1)C(=O)N[C@@H](Cc1ccccc1)C(=O)N[C@H](C=O)CN1CCCC1=O result_type="selectivity ratio" assay_value="> 25"
compound="CC(C)C[C@H](NC(=O)OCc1ccccc1)C(=O)N[C@@H](Cc1ccccc1)C(=O)N[C@H](C=O)CC[S+](C)[O-] (stereo partly drawn) (Cbz-Leu-Phe-[Met(O)]-aldehyde)" result_type="selectivity ratio" assay_value="> 22"

* * *

target: Human rhinovirus A protease (Human rhinovirus sp.); experiment: Binding affinity against HRV-14 3C protease.
Sequence (Q4U254 whole entry): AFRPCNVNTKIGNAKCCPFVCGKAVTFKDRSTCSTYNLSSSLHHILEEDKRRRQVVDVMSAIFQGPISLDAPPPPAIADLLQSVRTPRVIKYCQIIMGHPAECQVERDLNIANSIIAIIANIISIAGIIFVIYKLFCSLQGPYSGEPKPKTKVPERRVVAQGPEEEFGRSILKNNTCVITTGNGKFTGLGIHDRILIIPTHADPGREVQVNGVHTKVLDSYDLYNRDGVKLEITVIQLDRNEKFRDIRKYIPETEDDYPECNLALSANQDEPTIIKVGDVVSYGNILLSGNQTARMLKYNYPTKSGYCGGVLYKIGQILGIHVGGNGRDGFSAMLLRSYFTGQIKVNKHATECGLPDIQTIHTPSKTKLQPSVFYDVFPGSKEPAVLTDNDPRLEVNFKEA
Counter-ions that a name gives are not always drawn. Non-standard residues stand in square brackets, D forms with d. Residues, ends and D or L forms follow the SMILES beside them. *: point of attachment. Met(O) = CS(=O)CC[C@H](N)C(=O)O; Isobutyryl = CC(C)C(=O)*; Cbz = O=C(OCc1ccccc1)*; Dap = NC[C@H](N)C(=O)O; Boc = CC(C)(C)OC(=O)*; Propionyl = CCC(=O)*; Tfa = O=C(C(F)(F)F)*; Ms = CS(=O)(=O)*; Moc = COC(=O)*; For = O=C*
Quick reference for Ki among some compounds
result-type: Ki (nM)

compound="CC(C)C[C@H](NC(=O)OCc1ccccc1)C(=O)N[C@@H](Cc1ccccc1)C(=O)N[C@H](C=O)CNS(C)(=O)=O (Cbz-Leu-Phe-[Dap](Ms)-aldehyde)" assay_value=640
compound="CC(C)C[C@H](NC(=O)OCc1ccccc1)C(=O)N[C@@H](Cc1ccccc1)C(=O)N[C@H](C=O)CNC(=O)C(F)(F)F (Cbz-Leu-Phe-[Dap](Tfa)-aldehyde)" assay_value=146
compound="CC(C)C[C@H](NC(=O)OCc1ccccc1)C(=O)N[C@@H](Cc1ccccc1)C(=O)N[C@H](C=O)CNC(=O)C(C)C (Cbz-Leu-Phe-[Dap](Isobutyryl)-aldehyde)" assay_value=18
compound="CC(C)C[C@H](NC(=O)OCc1ccccc1)C(=O)N[C@@H](Cc1ccccc1)C(=O)N[C@H](C=O)CNC(=O)OC(C)(C)C (Cbz-Leu-Phe-[Dap](Boc)-aldehyde)" assay_value=66
compound=CC(C)C[C@H](NC(=O)OCc1ccccc1)C(=O)N[C@@H](Cc1ccccc1)C(=O)N[C@H](C=O)CCC#N assay_value=190
compound=CC(C)C[C@H](NC(=O)OCc1ccccc1)C(=O)N[C@@H](Cc1ccccc1)C(=O)N[C@H](C=O)CNC(=O)c1ccno1 assay_value=5
compound="CC(C)C[C@H](NC(=O)OCc1ccccc1)C(=O)N[C@@H](Cc1ccccc1)C(=O)N[C@H](C=O)CC[S+](C)[O-] (stereo partly drawn) (Cbz-Leu-Phe-[Met(O)]-aldehyde)" assay_value=5
compound="COC(=O)NC[C@@H](C=O)NC(=O)[C@H](Cc1ccccc1)NC(=O)[C@H](CC(C)C)NC(=O)OCc1ccccc1 (Cbz-Leu-Phe-[Dap](Moc)-aldehyde)" assay_value=132
compound="CCC(=O)NC[C@@H](C=O)NC(=O)[C@H](Cc1ccccc1)NC(=O)[C@H](CC(C)C)NC(=O)OCc1ccccc1 (Cbz-Leu-Phe-[Dap](Propionyl)-aldehyde)" assay_value=7
compound=CC(C)C[C@H](NC(=O)OCc1ccccc1)C(=O)N[C@@H](Cc1ccccc1)C(=O)N[C@H](C=O)CN1CCCC1=O assay_value=52
compound=CC(=O)N(C)C[C@@H](C=O)NC(=O)[C@H](Cc1ccccc1)NC(=O)[C@H](CC(C)C)NC(=O)OCc1ccccc1 assay_value=469
compound="CC(C)C[C@H](NC(=O)OCc1ccccc1)C(=O)N[C@@H](Cc1ccccc1)C(=O)N[C@H](C=O)CNC=O (Cbz-Leu-Phe-[Dap](For)-aldehyde)" assay_value=73
compound=CC(C)C[C@H](NC(=O)OCc1ccccc1)C(=O)N[C@@H](Cc1ccccc1)C(=O)N[C@H](C=O)CCC(=O)NC(c1ccccc1)(c1ccccc1)c1ccccc1 assay_value=40
